Molecular target: MurC from E.coli (Escherichia coli)
Experiment: Inhibition of MurC, colorimetric malachite green orthophosphate detection
Format: biochemical
Conditions: residual activity at 100µM compound
property.label: MurC RA (%)

These recorded examples may help you get a feel for the data.
N#Cc1ccc(COc2ccccc2C=NNS(=O)(=O)c2ccc3ccccc3c2)cc1 36 (100µM) %
O=C(Oc1ccccc1C=NNS(=O)(=O)c1ccc2ccccc2c1)c1cc([N+](=O)[O-])cc([N+](=O)[O-])c1 45 (100µM) %
O=[N+]([O-])c1ccc(S(=O)(=O)Oc2ccccc2C=NNS(=O)(=O)c2ccc3ccccc3c2)cc1 75 (100µM) %
O=C(Nc1ccc(C=NNS(=O)(=O)c2ccc3ccccc3c2)cc1)c1cc([N+](=O)[O-])cc([N+](=O)[O-])c1 72(100µM) %

For each entry beneath this line, provide reported MurC RA (%).
1. N#Cc1ccc(COc2ccccc2C=NNS(=O)(=O)Cc2ccccc2F)cc1
2. N#Cc1ccc(COc2ccccc2C=NNS(=O)(=O)c2ccccc2[N+](=O)[O-])cc1
3. N#Cc1ccc(COc2ccccc2C=NNS(=O)(=O)Cc2ccccc2)cc1

OUTPUT:
59 (100µM) %
95 (100µM) %
61 (100µM) %

---

Target: UniProt P17952
property.label: IC50 (µM)
Answers are plain numbers, in µM.

For each entry beneath this line, provide reported IC50.
1. O=C(Nc1ccc(C=NNS(=O)(=O)c2ccc3ccccc3c2)cc1)c1ccc2ccccc2c1
2. O=C(Nc1ccc(C=NNS(=O)(=O)c2ccc3ccccc3c2)cc1)c1cccc(Br)c1
3. O=C(Nc1ccccc1/C=N/NS(=O)(=O)c1ccc2ccccc2c1)c1ccccc1Br

OUTPUT:
31
30
35

INPUT: Enter reported IC50 observed with UniProt P17952 for O=C(Nc1ccc(C=NNS(=O)(=O)c2ccc3ccccc3c2)cc1)c1ccccc1[N+](=O)[O-]
OUTPUT: 51

---

Target: MurC from E.coli (Escherichia coli, UniProt P17952)
Sequence (P17952 whole entry): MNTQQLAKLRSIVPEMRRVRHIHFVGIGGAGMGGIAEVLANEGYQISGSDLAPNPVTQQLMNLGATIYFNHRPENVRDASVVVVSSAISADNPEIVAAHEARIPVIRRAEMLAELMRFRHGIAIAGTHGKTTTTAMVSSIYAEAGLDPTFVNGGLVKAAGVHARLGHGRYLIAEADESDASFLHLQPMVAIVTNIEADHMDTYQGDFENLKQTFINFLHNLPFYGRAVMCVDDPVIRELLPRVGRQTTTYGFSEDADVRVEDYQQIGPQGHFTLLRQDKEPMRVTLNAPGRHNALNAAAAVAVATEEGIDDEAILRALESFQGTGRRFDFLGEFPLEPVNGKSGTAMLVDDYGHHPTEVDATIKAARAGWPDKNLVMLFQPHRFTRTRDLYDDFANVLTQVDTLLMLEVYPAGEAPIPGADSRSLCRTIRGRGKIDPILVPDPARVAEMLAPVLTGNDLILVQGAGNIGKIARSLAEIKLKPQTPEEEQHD
Experiment: Inhibition of MurC, colorimetric malachite green orthophosphate detection
Assay type: biochemical
Conditions: 0.25 h; residual activity at 100µM compound; read-out: MurC RA (%)
Mark each entry true (1) if its remaining activity at 100 µM sits below 30%, and false (0) for all others.

Take a look at these entries with their results.
O=C(Nc1ccccc1/C=N/NS(=O)(=O)c1ccc2ccccc2c1)c1ccc([N+](=O)[O-])cc1 true (1)
CC(=O)Nc1ccc(Oc2cccc(C(=O)NNS(=O)(=O)c3ccc4ccccc4c3)c2)cc1 false (0)
O=C(Nc1cccc(/C=N/NS(=O)(=O)c2ccc3ccccc3c2)c1)c1ccccc1 false (0)

INPUT: Take the molecule CC(=O)Nc1ccc(Oc2ccccc2C(=O)NNS(=O)(=O)c2ccc3ccccc3c2)cc1 and say whether its remaining activity at 100 µM is less than 30%.
OUTPUT: false (0)

INPUT: Take the molecule O=C(Nc1ccccc1/C=N/NS(=O)(=O)c1ccc2ccccc2c1)c1ccccc1Br and say whether its remaining activity at 100 µM is less than 30%.
OUTPUT: true (1)

INPUT: Take the molecule O=C(Nc1ccc(C=NNS(=O)(=O)c2ccc3ccccc3c2)cc1)c1ccc2ccccc2c1 and say whether its remaining activity at 100 µM is less than 30%.
OUTPUT: true (1)

---

Target: MurC from E.coli (Escherichia coli, UniProt P17952)
Experiment: Inhibition of MurC, colorimetric malachite green orthophosphate detection
Type: biochemical
Conditions: residual activity at 50µM compound
property.label: MurC RA (%)

These recorded examples may help you get a feel for the data.
O=[N+]([O-])c1ccccc1S(=O)(=O)Oc1ccccc1C=NNS(=O)(=O)c1ccc2ccccc2c1 55 (50µM) %
O=C(Nc1ccc(C=NNS(=O)(=O)c2ccc3ccccc3c2)cc1)c1ccc([N+](=O)[O-])cc1 71 (50µM) %
O=C(Nc1ccc(C=NNS(=O)(=O)c2ccc3ccccc3c2)cc1)c1ccccc1Br 53 (50µ) %

Okay, now this compound:
INPUT: Enter reported MurC RA (%) observed with MurC from E.coli (Escherichia coli, UniProt P17952) for N#Cc1ccc(C(=O)Nc2ccc(C=NNS(=O)(=O)c3ccc4ccccc4c3)cc2)cc1
OUTPUT: 91 (50µM) %
